Assay: Peptide stability analysis in human serum (HPLC)
Format: in vitro ADME
Conditions: pH 7.4; human serum, 37° C.
Square brackets hold non-standard residues; d marks the D form. Peptide text beside a SMILES is read from it.
parameter_measured: half-life at 1 mg/mL (min)
State the answer as a number, implicitly in min.

Prompt line: Read the entry CC(=O)N[C@@H](CCCNC(=N)N)C(=O)N[C@@H](CC(C)C)C(=O)N[C@@H](Cc1ccc(O)cc1)C(=O)N[C@@H](CCC(=O)O)C(=O)O [Ac-RLYE] (Ac-RLYE-OH; C-terminus assumed) and write its reported half-life at 1 mg/mL.
Response line: 528

Prompt line: Fill in reported half-life at 1 mg/mL for this entry: CC(C)C[C@H](NC(=O)[C@@H](N)CCCNC(=N)N)C(=O)N[C@@H](Cc1ccc(O)cc1)C(=O)N[C@@H](CCC(=O)O)C(N)=O [RLYE-NH2] (H-RLYE-NH2; N-terminus assumed)
Response line: 78

Prompt line: Return value of half-life at 1 mg/mL for input CC(C)C[C@H](NC(=O)[C@H](N)CCCNC(=N)N)C(=O)N[C@@H](Cc1ccc(O)cc1)C(=O)N[C@@H](CCC(=O)O)C(=O)O [R(D)LYE] (H-[dR]LYE-OH; N-terminus and C-terminus assumed) , no commentary.
Response line: 420

Prompt line: Tell me measured half-life at 1 mg/mL for CC(C)C[C@H](NC(=O)[C@@H](N)CCCNC(=N)N)C(=O)N[C@@H](Cc1ccc(O)cc1)C(=O)N[C@@H](CCC(=O)O)C(=O)O [RLYE, Arg-Leu-Tyr-Glu, reference compound] (H-RLYE-OH; N-terminus and C-terminus assumed) please.
Response line: 72
